Below, each entry is listed with its recorded melting point.

melting point for COc1ccc(Cn2cncc2-c2c[nH]c3ccc(OC)cc23)cc1 [Compound 64] ?
67 to 68 °C

Please answer likewise for COc1ccc(CCn2cncc2-c2c[nH]c3c(Cl)cccc23)cc1 [Compound 69]
59 to 60 °C

Try this compound next: COc1ccc(OC)c(CCn2cncc2-c2c[nH]c3cc(Cl)ccc23)c1 [Compound 33]
80 to 81 °C

Entry COc1ccc(CCn2cncc2-c2c[nH]c3ccc(Br)cc23)cc1 [Compound 27] please
157 to 158 °C

Let us now turn to COc1ccc(Cn2cncc2-c2c[nH]c3ccc(Cl)cc23)cc1 [Compound 14]
193 to 194 °C

Next compound: Brc1ccc2c(-c3cncn3Cc3ccc(I)cc3)c[nH]c2c1 [Compound 10]
> 200 °C

// query: c1ccc(-c2cncn2Cc2c[nH]c3ccccc23)cc1 [Compound 111]
57 to 58 °C

Try the compound Fc1cccc2c(-c3cncn3Cc3ccccc3)c[nH]c12 [Compound 44]
179 to 180 °C

***
Need melting point, item CCCCCn1cncc1-c1c[nH]c2cccc(F)c12
147 to 148 °C

Quick one: Fc1ccc2[nH]cc(-c3cncn3Cc3ccc(I)cc3)c2c1 [Compound 5]
187 to 188 °C

Same again, this time with CCCCCn1cncc1-c1c[nH]c2c(Cl)cccc12 [Compound 93]
122 to 123 °C

Do the same for COc1ccc2[nH]cc(-c3cncn3Cc3ccccc3)c2c1 [Compound 49] please
65 to 66 °C

Item: Clc1cccc2c(-c3cncn3CCc3ccccc3)c[nH]c12 [Compound 54]
47 to 48 °C

Now the same for COc1ccc2c(-c3cncn3Cc3c[nH]c4ccccc34)c[nH]c2c1 [Compound 80]
95 to 96 °C

Could you do the same for Brc1cccc2[nH]cc(-c3cncn3Cc3ccccc3)c12 [Compound 48] , please?
201 to 202 °C

* * *

Experiment: HEK293 cytotoxicity assay (resazurin)
Format: cell-based, human
Conditions: human; concentration at 50% cytotoxicity on HEK293 cells; mean (n = 2)
In plain terms, low CC50 at 20 h, meaning strictly below 20 µg/mL, gives t, and everything else gives f.

Please let me know if Brc1ccc2c(-c3cncn3CCc3ccc4c(c3)OCO4)c[nH]c2c1 shows CC50 at 20 h below 20 µg/mL.
t

Continuing:
Quick check: does COc1ccc(OC)c(CCn2cncc2-c2c[nH]c3ccccc23)c1 have CC50 at 20 h under 20 µg/mL?
t

Can you check COc1ccc(OC)c(CCn2cncc2-c2c[nH]c3ccc(Br)cc23)c1 next?
t

Consider next the molecule COc1ccc(CCn2cncc2-c2c[nH]c3cc(Cl)ccc23)cc1 in the same way.
f

Now the molecule COc1ccc2c(-c3cncn3CCc3ccccc3)c[nH]c2c1
f

And then Fc1ccc2c(-c3cncn3CCc3ccccc3)c[nH]c2c1 , what is it?
t

Now try COc1ccc(CCn2cncc2-c2c[nH]c3cc(Br)ccc23)cc1 .
t

* * *

quantity_name: melting point

So what's the measured melting point for this one? CCCCCn1cncc1-c1c[nH]c2c(F)cccc12
164 to 165 °C

Okay, and COc1ccc(CCn2cncc2-c2c[nH]c3ccc(F)cc23)cc1 [Compound 24] ?
152 to 153 °C

* * *

Hi! I'm sharing some MIC results obtained with Cryptococcus neoformans ATCC208821.
Express your answer in µg/mL, writing the number without its unit.

Notebook: pull reported MIC for Cryptococcus neoformans ATCC208821, entry COc1ccc(CCn2cncc2-c2c[nH]c3cc(Cl)ccc23)cc1 [Compound 2]
32

Moving on to COc1ccc(CCn2cncc2-c2c[nH]c3cc(Br)ccc23)cc1 [Compound 28]
32

// query: Fc1ccc2c(-c3cncn3Cc3ccc(I)cc3)c[nH]c2c1 [Compound 6]
32

Now the same for COc1ccc(Cn2cncc2-c2c[nH]c3cc(Br)ccc23)cc1 [Compound 17]
32

Next up: Brc1ccc2c(-c3cncn3CCc3ccccc3)c[nH]c2c1 [Compound 22]
32

Try Brc1ccc2[nH]cc(-c3cncn3CCc3ccccc3)c2c1 [Compound 21] next.
32

Continue with OC(Cn1cncn1)(Cn1cncn1)c1ccc(F)cc1F [fluconazole, reference compound]
8

Now this one: Brc1ccc2c(-c3cncn3CCc3ccc4c(c3)OCO4)c[nH]c2c1 [Compound 42]
32

We now examine a further compound.
What measured MIC is associated with Brc1ccc2[nH]cc(-c3cncn3Cc3ccc(I)cc3)c2c1 [Compound 9] on Cryptococcus neoformans ATCC208821?
16

All values here come from paper PMC9598367.
